Hi there, I'd appreciate the recorded relative viability for every entry that follows.
- Test system: NCI-H2405
- PROCEDURE TEXT: relative viability (nuclei count vs DMSO), 5 days (fraction); higher = more cells survive
- CONDITION SUMMARY: first compound 0.253 µM
Hey, just send me the number, nothing else.

Prompt: Give the value of relative viability reported for the following: COc1nc(C)cnc1NS(=O)(=O)c1cccnc1-c1ccc(-c2nnco2)cc1 [Zibotentan] + Nc1ncn([C@H]2C[C@H](O)[C@@H](CO)O2)c(=O)n1 [Decitabine] (partner 2 µM)
Completion: 0.684

Prompt: Give the value of relative viability reported for the following: COc1nc(C)cnc1NS(=O)(=O)c1cccnc1-c1ccc(-c2nnco2)cc1 [Zibotentan] + CC(=O)c1c(C)c2cnc(Nc3ccc(N4CCNCC4)cn3)nc2n(C2CCCC2)c1=O [Palbociclib] (partner 0.5 µM)
Completion: 0.546

Prompt: Give the value of relative viability reported for the following: COc1nc(C)cnc1NS(=O)(=O)c1cccnc1-c1ccc(-c2nnco2)cc1 [Zibotentan] + Cc1nc(NC(=O)N2CCC[C@H]2C(N)=O)sc1-c1ccnc(C(C)(C)C(F)(F)F)c1 [Alpelisib] (partner 2 µM)
Completion: 0.65

Prompt: Give the value of relative viability reported for the following: O=c1cc(-c2cccc3c2Sc2ccccc2S3)oc(N2CCOCC2)c1 + CC(C)C[C@H](NC(=O)[C@H](Cc1ccccc1)NC(=O)c1cnccn1)B(O)O [Bortezomib] (partner 0.002 µM)
Completion: 1.11

Prompt: Give the value of relative viability reported for the following: COc1nc(C)cnc1NS(=O)(=O)c1cccnc1-c1ccc(-c2nnco2)cc1 [Zibotentan] + CC(=O)Nc1cccc(-n2c(=O)n(C3CC3)c(=O)c3c(Nc4ccc(I)cc4F)n(C)c(=O)c(C)c32)c1 [Trametinib] (partner 0.02 µM)
Completion: 0.599

Prompt: Give the value of relative viability reported for the following: O=c1cc(-c2cccc3c2Sc2ccccc2S3)oc(N2CCOCC2)c1 + O=C(CCCCCCC(=O)Nc1ccccc1)NO [Vorinostat] (partner 1 µM)
Completion: 0.99

Prompt: Give the value of relative viability reported for the following: COc1nc(C)cnc1NS(=O)(=O)c1cccnc1-c1ccc(-c2nnco2)cc1 [Zibotentan] + Nc1nc2[nH]cc(CCc3ccc(C(=O)N[C@@H](CCC(=O)O)C(=O)O)cc3)c2c(=O)[nH]1 [Pemetrexed] (partner 0.2 µM)
Completion: 0.975

Prompt: Give the value of relative viability reported for the following: COc1nc(C)cnc1NS(=O)(=O)c1cccnc1-c1ccc(-c2nnco2)cc1 [Zibotentan] + O=C(c1cc(Cc2n[nH]c(=O)c3ccccc23)ccc1F)N1CCN(C(=O)C2CC2)CC1 [Olaparib] (partner 8 µM)
Completion: 0.843

Prompt: Give the value of relative viability reported for the following: O=c1cc(-c2cccc3c2Sc2ccccc2S3)oc(N2CCOCC2)c1 + O=C(c1cc(Cc2n[nH]c(=O)c3ccccc23)ccc1F)N1CCN(C(=O)C2CC2)CC1 [Olaparib] (partner 8 µM)
Completion: 1.04

Prompt: Give the value of relative viability reported for the following: COc1nc(C)cnc1NS(=O)(=O)c1cccnc1-c1ccc(-c2nnco2)cc1 [Zibotentan] + O=C(CCCCCCC(=O)Nc1ccccc1)NO [Vorinostat] (partner 1 µM)
Completion: 0.829

Prompt: Give the value of relative viability reported for the following: O=c1cc(-c2cccc3c2Sc2ccccc2S3)oc(N2CCOCC2)c1 + CS(=O)(=O)N1CCN(Cc2cc3nc(-c4cccc5[nH]ncc45)nc(N4CCOCC4)c3s2)CC1 [Pictilisib] (partner 1 µM)
Completion: 0.386

Prompt: Give the value of relative viability reported for the following: COc1nc(C)cnc1NS(=O)(=O)c1cccnc1-c1ccc(-c2nnco2)cc1 [Zibotentan] + CS(=O)(=O)CCNCc1ccc(-c2ccc3ncnc(Nc4ccc(OCc5cccc(F)c5)c(Cl)c4)c3c2)o1 [Lapatinib] (partner 2 µM)
Completion: 0.84
